The values you see were collected from patent US20040116420A1.

- Tested on: HSV-1
- Measurement Protocol: Antiviral activity, HSV-1 in Vero cells, plaque method
- Type: cell-based
- Assay Setup: Human alphaherpesvirus 1, 20 hours, 90% inhibition of plaque formation
Property Label: EC90 (µM)

- Cc1c(NC(=O)OC(C)(C)C)ccc2nc(N[C@H](C(=O)NCc3cccnc3)C(C)(C)C)oc(=O)c12: 13
- Cc1c(NC(=O)OC(C)(C)C)ccc2nc(N[C@H](C(=O)N(C)CCc3ccccn3)C(C)(C)C)oc(=O)c12: 5.9
- Cc1c(NC(=O)c2ccc(F)cc2)ccc2nc(NC(C)(C)C(=O)N(C)CCc3ccccn3)oc(=O)c12: 10.6
- Cc1c(NC(=O)OC(C)(C)C)ccc2nc(N[C@@H](C)C(=O)N(C)CCc3cccnc3)oc(=O)c12: 7.6
- Cc1c(NC(=O)c2ccc3ccccc3c2)ccc2nc(NC(C)(C)C(=O)N(C)CCc3ccccn3)oc(=O)c12: 11.8
- Cc1c(NC(=O)OC(C)(C)C)ccc2nc(NC(C)(C)C(=O)N(C)CCc3ccccc3)oc(=O)c12 [compound 229, reference compound]: 6.6
- Cc1c(NC(=O)OC(C)(C)C)ccc2nc(N(C)[C@@H](Cc3ccccc3)C(=O)NCCc3ccccn3)oc(=O)c12: 9.5
- Cc1c(NC(=O)OC(C)(C)C)ccc2nc(NC(C)(C)C(=O)N(C)CCc3cccnc3)oc(=O)c12: 6.2

[I] CCCc1ccc(C(=O)Nc2ccc3nc(NC(C)(C)C(=O)N(C)CCc4ccccn4)oc(=O)c3c2C)cc1
[II] Cc1c(NC(=O)OC(C)(C)C)ccc2nc(N3Cc4ccccc4C[C@H]3C(=O)NCc3ccncc3)oc(=O)c12
[III] Cc1c(NC(=O)OC(C)(C)C)ccc2nc(N[C@@H](Cc3ccccc3)C(=O)NCc3cccnc3)oc(=O)c12
Task: Please list these in order of increasing EC90. Thank you! Put the labels in the requested order and list them out.
Output: I, II, III
(I: 5.8 µM, II: 11.2 µM, III: 23.8 µM)

###

- System: HSV-1
- Measurement Protocol: Antiviral activity, HSV-1 in Vero cells, plaque method
- Assay type: cell-based
- Assay Setup: Human alphaherpesvirus 1, 20 hours, 90% inhibition of plaque formation
Property Label: EC90 (µM)

Solved entries:
* Cc1c(NC(=O)c2ccc(Br)cc2)ccc2nc(NC(C)(C)C(=O)N(C)CCc3ccccn3)oc(=O)c12 [Compound No.154] | 5.4
* Cc1c(NC(=O)OC(C)(C)C)ccc2nc(N[C@@H](CC(C)C)C(=O)N(C)Cc3ccccn3)oc(=O)c12 [Compound No.62] | 4.7
* Cc1c(NC(=O)OC(C)(C)C)ccc2nc(N[C@@H](CC(C)C)C(=O)N(C)CCc3cccnc3)oc(=O)c12 [Compound No.68] | 6.1

[A] Cc1c(NC(=O)OC(C)(C)C)ccc2nc(NC(C)(C)C(=O)N(C)CCc3ccncc3)oc(=O)c12 [Compound No.51]
[B] Cc1c(NC(=O)OC(C)(C)C)ccc2nc(N[C@H](C(=O)N(C)Cc3ccccn3)C(C)C)oc(=O)c12 [Compound No.61]
Task: Which record shows the lower EC90: the first, A , or the second, B ? Returns: label corresponding to the selected item.
Output: B
(B: 4.7 µM, A: 9.3 µM)

###

Consider the following IC50 values measured on HSV-1 protease (Human herpesvirus 1).
Sequence (P10210 1-247): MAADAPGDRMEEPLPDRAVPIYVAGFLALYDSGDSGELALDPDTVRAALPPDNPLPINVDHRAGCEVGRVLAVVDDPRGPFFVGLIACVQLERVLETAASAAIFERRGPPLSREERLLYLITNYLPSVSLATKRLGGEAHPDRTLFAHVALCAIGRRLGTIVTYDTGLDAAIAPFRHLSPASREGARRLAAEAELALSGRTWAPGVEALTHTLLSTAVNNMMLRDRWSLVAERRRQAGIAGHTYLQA
Property Label: IC50 (nM)

* Cc1c(NC(=O)OC(C)(C)C)ccc2nc(NC(C)(C)C(=O)NCc3ccncc3)oc(=O)c12 [Compound No.34] | 1600

[A] Cc1c(NC(=O)OC(C)(C)C)ccc2nc(N3CCC[C@H]3C(=O)NCCc3ccccn3)oc(=O)c12 [Compound No.89]
[B] COCC(=O)Nc1ccc2nc(NC(C)(C)C(=O)N(C)CCc3ccccn3)oc(=O)c2c1C [Compound No.137]
Task: Hi team, can someone confirm which has the larger IC50: A or B ? Thanks. Indicate which entry you chose by stating its label.
Output: B
(B: 4200 nM, A: 1400 nM)

###

- Tested System: HSV-1 protease (Human herpesvirus 1)
pIC50: −log10 of the molar value.
Property Label: pIC50

[P] Cc1c(NC(=O)OC(C)(C)C)ccc2nc(NC(C)(C)C(=O)NCCc3ccccn3)oc(=O)c12 [Compound No.35]
[Q] Cc1c(NC(=O)CCCNC(=O)c2ccccn2)ccc2nc(NC(C)(C)C(=O)N(C)CCc3ccccn3)oc(=O)c12 [Compound No.221]
[R] Cc1c(NC(=O)OC(C)(C)C)ccc2nc(N[C@@H](CC3CCCCC3)C(=O)N(C)CCc3ccccn3)oc(=O)c12 [Compound No.47]
Task: Order each entry by recorded pIC50, climbing from the minimum. # answer = labels listed in requested order
Output: R, P, Q

[A] CCCCc1ccc(C(=O)NCCC(=O)Nc2ccc3nc(NC(C)(C)C(=O)N(C)CCc4ccccn4)oc(=O)c3c2C)cc1 [Compound No.211]
[B] Cc1c(NC(=O)OC(C)(C)C)ccc2nc(N[C@H](C(=O)N(C)CCc3ccccn3)C(C)C)oc(=O)c12 [Compound No.45]
[C] Cc1c(NC(=O)CCCNC(=O)OCc2ccccc2)ccc2nc(N[C@@H](C)C(=O)N(C)CCc3ccccn3)oc(=O)c12 [Compound No.208]
Task: // ranking: key=pIC50, reverse=True Answer by writing out the labels in the requested order.
Output: C, A, B

[A] Cc1c(NC(=O)c2sccc2Cl)ccc2nc(NC(C)(C)C(=O)N(C)CCc3ccccn3)oc(=O)c12 [Compound No.179]
[B] Cc1c(NC(=O)OC(C)(C)C)ccc2nc(N[C@@H](CC(C)C)C(=O)N(C)CCc3cccnc3)oc(=O)c12 [Compound No.68]
Task: Higher pIC50 between A and B ? Write the label of whichever entry you select.
Output: A
(A: 6.00, B: 5.70)

[1] Cc1c(NC(=O)OC(C)(C)C)ccc2nc(N[C@@H](C)C(=O)N(C)CCc3ccncc3)oc(=O)c12 [Compound No.50]
[2] Cc1c(NC(=O)OC(C)(C)C)ccc2nc(N[C@@H](CCc3ccccc3)C(=O)NCc3ccccn3)oc(=O)c12 [Compound No.39]
[3] Cc1c(NC(=O)OC(C)(C)C)ccc2nc(N3Cc4ccccc4C[C@H]3C(=O)NCc3cccnc3)oc(=O)c12 [Compound No.95]
[4] Cc1c(NC(=O)OC(C)(C)C)ccc2nc(NC(C)(C)C(=O)N(C)CCc3cccnc3)oc(=O)c12 [Compound No.19]
Task: # sort list by recorded pIC50, greatest to least Respond with an ordered listing of the labels, as requested.
Output: 4, 1, 2, 3

###

- Tested System: HSV-1 protease (Human herpesvirus 1)
pIC50: −log10 of the molar value.
Property Label: pIC50

// solved cases for pIC50 follow
• Cc1c(NC(=O)CCCNC(=O)c2ccc(C(F)(F)F)cc2)ccc2nc(N[C@@H](C)C(=O)N(C)CCc3ccccn3)oc(=O)c12 = 6.05
• COC(=O)c1ccc(C(=O)Nc2ccc3nc(NC(C)(C)C(=O)N(C)CCc4ccccn4)oc(=O)c3c2C)cc1 = 5.85
• Cc1c(NC(=O)OC(C)(C)C)ccc2nc(N3CCCC[C@H]3C(=O)NCCc3ccccn3)oc(=O)c12 = 5.54
• Cc1c(NC(=O)OC(C)(C)C)ccc2nc(N[C@@H](CCc3ccccc3)C(=O)NCc3ccncc3)oc(=O)c12 = 5.25

[a] Cc1c(NC(=O)c2ccc(C(F)(F)F)cc2)ccc2nc(NC(C)(C)C(=O)N(C)CCc3ccccn3)oc(=O)c12
[b] Cc1c(NC(=O)c2ccc([N+](=O)[O-])o2)ccc2nc(NC(C)(C)C(=O)N(C)CCc3ccccn3)oc(=O)c12
[c] Cc1c(NC(=O)c2ccc(Br)cc2)ccc2nc(NC(C)(C)C(=O)N(C)CCc3ccccn3)oc(=O)c12
Task: List by increasing pIC50. Please express your ranking as an ordered list of the labels.
Output: b, c, a

###

- Test system: HSV-1
- Measurement Protocol: Antiviral activity, HSV-1 in Vero cells, plaque method
- Format: cell-based
- Assay Setup: Human alphaherpesvirus 1, 20 hours, 90% inhibition of plaque formation
Property Label: EC90 (µM)

* Cc1c(NC(=O)OC(C)(C)C)ccc2nc(N[C@@H](Cc3ccccc3)C(=O)N(C)CCc3cccnc3)oc(=O)c12 | 5.1

[P] COc1ccccc1C(=O)Nc1ccc2nc(NC(C)(C)C(=O)N(C)CCc3ccccn3)oc(=O)c2c1C
[Q] Cc1c(NC(=O)c2ccc(C(C)(C)C)cc2)ccc2nc(NC(C)(C)C(=O)N(C)CCc3ccccn3)oc(=O)c12
Task: For the two items P and Q , which reports the higher EC90 value? Your answer should be the label attached to the chosen record.
Output: P
(P: 11.4 µM, Q: 3.6 µM)

###

- Test system: HSV-1
- Measurement Protocol: Antiviral activity, HSV-1 in Vero cells, plaque method
- Type: cell-based
- Assay Setup: Human alphaherpesvirus 1, 20 hours, 90% inhibition of plaque formation
Property Label: EC90

Below, 10 molecules whose answers are already recorded.
* Cc1c(NC(=O)C(C)C)ccc2nc(NC(C)(C)C(=O)N(C)CCc3ccccn3)oc(=O)c12 | ≥ 12.5 µM
* Cc1c(NC(=O)OC(C)(C)C)ccc2nc(N[C@@H](C)C(=O)N(C)CCc3ccncc3)oc(=O)c12 | < 3.2 µM
* Cc1c(NC(=O)c2ccccc2I)ccc2nc(NC(C)(C)C(=O)N(C)CCc3ccccn3)oc(=O)c12 | > 12.5 µM
* Cc1c(NC(=O)OC(C)(C)C)ccc2nc(N3C[C@H](OCc4ccccc4)C[C@H]3C(=O)NCc3ccccn3)oc(=O)c12 | 8.8 µM
* Cc1c(NC(=O)OC(C)(C)C)ccc2nc(N[C@@H](CCc3ccccc3)C(=O)NCCc3ccccn3)oc(=O)c12 | 10.7 µM
* Cc1c(NC(=O)OC(C)(C)C)ccc2nc(NC3(C(=O)N(C)CCc4ccccn4)CCCCC3)oc(=O)c12 | 6.1 µM
* Cc1c(NC(=O)OC(C)(C)C)ccc2nc(N3CCC[C@H]3C(=O)NCCc3ccccn3)oc(=O)c12 | > 12.5 µM
* Cc1c(NC(=O)CCNC(=O)c2cccs2)ccc2nc(NC(C)(C)C(=O)N(C)CCc3ccccn3)oc(=O)c12 | > 12.5 µM
* Cc1c(NC(=O)CCNC(=O)OC(C)(C)C)ccc2nc(N[C@H](C)C(=O)N(C)CCc3ccccn3)oc(=O)c12 | > 20 µM
* COc1cc(OC)cc(C(=O)Nc2ccc3nc(NC(C)(C)C(=O)N(C)CCc4ccccn4)oc(=O)c3c2C)c1 | > 12.5 µM

Task: Fill in EC90 for record "Cc1c(NC(=O)OC(C)(C)C)ccc2nc(N[C@@H](C)C(=O)N(C)Cc3ccccn3)oc(=O)c12"
Output: 10.8 µM

Task: Provide EC90 value for the following molecule: "Cc1c(NC(=O)OC(C)(C)C)ccc2nc(N[C@@H](CCc3ccccc3)C(=O)NCc3ccccn3)oc(=O)c12"
Output: 12.4 µM

Task: Give reported EC90 value for "Cc1c(NC(=O)C(C)(C)C)ccc2nc(NC(C)(C)C(=O)N(C)CCc3ccccn3)oc(=O)c12"
Output: > 12.5 µM

Task: Consider the molecule "Cc1cc(C(=O)Nc2ccc3nc(NC(C)(C)C(=O)N(C)CCc4ccccn4)oc(=O)c3c2C)c(C(F)(F)F)o1" and give its recorded EC90.
Output: > 12.5 µM
